# Assay Method Text: Photochromic properties of photochromic laminate (plastic lens) prepared by coating method
# Type: physicochemical
# Run Conditions: 40 µm photochromic layer on thiourethane lens, 0.25 mmol compound per 100 g monomers, after color development
Entries and their Maximum absorption wavelength
Could you give me the number in nm? Just the number is fine.

{"columns": ["Molecule", "Units", "Maximum absorption wavelength"],
 "data": [
  ["COc1ccc(C2(c3ccc(N(C)c4ccccc4)cc3)C=Cc3c4c(c5cc(-c6ccc(N7CCOCC7)cc6)c(OC)cc5c3O2)-c2ccccc2C4(C)C)cc1 (stereo not drawn)", "nm", 502],
  ["CCCC1(CCC)c2ccccc2-c2c1c1c(c3cc(OC)c(-c4ccc(OC)cc4OC)cc23)OC(c2ccc(N(C)c3ccccc3)cc2)(c2ccc(OC)c(F)c2)C=C1 (stereo not drawn)", "nm", 496],
  ["COCCCC1(CCCOC)c2cc(-c3ccc(C(C)(C)C)cc3)ccc2-c2c1c1c(c3cc(OC)c(OC)cc23)OC(c2ccc(N(CCOC)c3ccccc3)cc2)(c2ccc3c(c2)OCCO3)C=C1 (stereo not drawn)", "nm", 486],
  ["CCCOc1ccc(C2(c3ccc(N(CC(F)(F)F)c4ccccc4)cc3)C=Cc3c4c(c5ccccc5c3O2)-c2ccccc2C42CCCCCCC2)cc1 (stereo not drawn)", "nm", 578],
  ["CCCc1ccc(C2(c3ccc(N(C)c4ccccc4)cc3)C=Cc3c4c(c5cc(-c6ccc(C)cc6)c(C)cc5c3O2)-c2ccccc2C4(CCOC)CCOC)cc1 (stereo not drawn)", "nm", 587],
  ["CCCc1ccc(C2(c3ccc(N(C)c4ccccc4)cc3)C=Cc3c4c(c5cc(OC)ccc5c3O2)-c2ccccc2C42CCCCCCC2)cc1 (stereo not drawn)", "nm", 487]
]}

Here is the next item to consider.
**Query** Fill blank: measured Maximum absorption wavelength of the molecule CCCCOCCC1(CCOCCCC)c2ccccc2-c2c1c1c(c3cc(OC)c(NC(=O)c4ccccc4)cc23)OC(c2ccc(N(C)c3ccccc3)cc2)(c2ccc(OC)c(F)c2)C=C1 (stereo not drawn) is ____.
**Result** 500

====

Entries and their Maximum absorption wavelength
# Assay Method Text: Photochromic properties of photochromic laminate (plastic lens) prepared by coating method
# Assay type: physicochemical
# Run Conditions: 40 µm photochromic layer on thiourethane lens, 0.25 mmol compound per 100 g monomers, after color development
Could you give me the number in nm? Just the number is fine.

Example entries and their recorded answers appear below.
{"columns": ["Compound", "Maximum absorption wavelength, nm"],
 "data": [
  ["COCCCCC1(CCCCOC)c2ccccc2-c2c1c1c(c3cc(-c4ccc(OC)cc4OC)c(OC)cc23)OC(c2ccc(N(C)c3ccccc3)cc2)(c2ccc3c(c2)CCO3)C=C1 (centres unmarked) [Example 62]", 477],
  ["COc1ccc(C2(c3ccc(N(C)c4ccccc4)cc3)C=Cc3c4c(c5cc(-c6ccc(N7CCSCC7)cc6)c(OC)cc5c3O2)-c2ccc(OC)cc2C4(CCC(F)(F)F)CCC(F)(F)F)cc1 (centres unmarked) [Example 54]", 501],
  ["COCCOCCOCCOCCC1(CCOCCOCCOCCOC)c2cc(C(F)(F)F)ccc2-c2c1c1c(c3cc(OC)c(OC)cc23)OC(c2ccc(OC)cc2)(c2ccc(N(C)c3ccccc3)cc2)C=C1 (centres unmarked) [Example 51]", 482],
  ["COc1ccc(C2(c3ccc(N(c4ccccc4)C4CCCCC4)cc3)C=Cc3c4c(c5cc(OC)c(OC)cc5c3O2)-c2ccccc2C4(CCCCF)CCCCF)cc1 (centres unmarked) [Example 6]", 481],
  ["CCCOc1ccc(C2(c3ccc(N(CC(F)(F)F)c4ccccc4)cc3)C=Cc3c4c(c5cc(-c6ccc(OC)cc6)c(C)cc5c3O2)-c2ccc(C)cc2C4(CC)CC)cc1 (centres unmarked) [Example 17]", 484]
]}

**Query** Fill blank: measured Maximum absorption wavelength of the compound COCCCCC1(CCCCOC)c2cc(Sc3c(C)cccc3C)ccc2-c2c1c1c(c3cc(OC)ccc23)OC(c2ccc(OC)cc2)(c2ccc(N(C)c3ccc(OC)cc3)cc2)C=C1 (centres unmarked) [Example 11] is ____.
**Result** 477

**Query** Fill blank: measured Maximum absorption wavelength of the compound CCCC1(CCC)c2ccccc2-c2c1c1c(c3cc(OC)c(-c4ccc(N(C)c5ccccc5)cc4)cc23)OC(c2ccc(C)cc2)(c2ccc(N(C)c3ccccc3)cc2)C=C1 (centres unmarked) [Example 24] is ____.
**Result** 504

**Query** Fill blank: measured Maximum absorption wavelength of the compound CCN(c1ccc(OC)cc1)c1ccc(C2(c3ccc(OC)cc3)C=Cc3c4c(c5cc(-c6ccc(N7CCOCC7)cc6)c(OC)cc5c3O2)-c2ccccc2C4(C)C)cc1 (centres unmarked) [Example 25] is ____.
**Result** 505
